Listed next: entries and their corresponding solubility (mole fraction).
settings: in n-propanol, 283.15 K
Just the number.

{"querySmiles": "CC(=O)c1cccc([N+](=O)[O-])c1", "quantity": "solubility (mole fraction)", "valueMeasured": 0.00487}

Lookup: Please report the recorded solubility (mole fraction) for `CC(=O)c1ccc([N+](=O)[O-])cc1` .
Found: 0.00608

----------
conditions: in isopropanol, 313.15 K
quantity: solubility (mole fraction)
Just the number.

{"querySmiles": "CC(=O)c1ccc([N+](=O)[O-])cc1", "solubility (mole fraction)": 0.0223}

Note: attention shifts to another entry.
Lookup: Please report the recorded solubility (mole fraction) for `CC(=O)c1cccc([N+](=O)[O-])c1` .
Found: 0.018

----------
Listed next: entries and their corresponding solubility (mole fraction).
conditions: in acetonitrile, 318.15 K

{"querySmiles": "CC(=O)c1cccc([N+](=O)[O-])c1", "valueMeasured": 0.454}

Note: attention shifts to another entry.
Lookup: Please report the recorded solubility (mole fraction) for `CC(=O)c1ccc([N+](=O)[O-])cc1` .
Found: 0.389

----------
Listed next: entries and their corresponding solubility (mole fraction).
conditions: in n-propanol, 313.15 K
Just the number.

{"querySmiles": "CC(=O)c1cccc([N+](=O)[O-])c1", "solubility (mole fraction)": 0.0204}

Lookup: Please report the recorded solubility (mole fraction) for `CC(=O)c1ccc([N+](=O)[O-])cc1` .
Found: 0.0246

----------
Listed next: entries and their corresponding solubility (mole fraction).
details: in toluene, 318.15 K
Just the number.

{"querySmiles": "CC(=O)c1ccc([N+](=O)[O-])cc1", "solubility (mole fraction)": 0.275}

Note: attention shifts to another entry.
Lookup: Please report the recorded solubility (mole fraction) for `CC(=O)c1cccc([N+](=O)[O-])c1` .
Found: 0.328

----------
conditions: in isopropanol, 318.15 K
quantity: solubility (mole fraction)
Just the number.

Lookup: Please report the recorded solubility (mole fraction) for `CC(=O)c1ccc([N+](=O)[O-])cc1` .
Found: 0.0296

Lookup: Please report the recorded solubility (mole fraction) for `CC(=O)c1cccc([N+](=O)[O-])c1` .
Found: 0.023

----------
conditions: in ethanol, 298.15 K
Listed next: entries and their corresponding solubility (mole fraction).
Just the number.

Lookup: Please report the recorded solubility (mole fraction) for `CC(=O)c1ccc([N+](=O)[O-])cc1` .
Found: 0.0155

Lookup: Please report the recorded solubility (mole fraction) for `CC(=O)c1cccc([N+](=O)[O-])c1` .
Found: 0.0125

----------
Listed next: entries and their corresponding solubility (mole fraction).
conditions: in cyclohexane, 303.15 K
Just the number.

Lookup: Please report the recorded solubility (mole fraction) for `CC(=O)c1cccc([N+](=O)[O-])c1` .
Found: 0.00333

Lookup: Please report the recorded solubility (mole fraction) for `CC(=O)c1ccc([N+](=O)[O-])cc1` .
Found: 0.00423

----------
settings: in acetone, 313.15 K
Listed next: entries and their corresponding solubility (mole fraction).
Just the number.

{"querySmiles": "CC(=O)c1ccc([N+](=O)[O-])cc1", "quantity": "solubility (mole fraction)", "valueMeasured": 0.376}

Note: attention shifts to another entry.
Lookup: Please report the recorded solubility (mole fraction) for `CC(=O)c1cccc([N+](=O)[O-])c1` .
Found: 0.384

----------
Listed next: entries and their corresponding solubility (mole fraction).
details: in acetonitrile, 278.15 K
Just the number.

{"querySmiles": "CC(=O)c1ccc([N+](=O)[O-])cc1", "solubility (mole fraction)": 0.103}

Note: attention shifts to another entry.
Lookup: Please report the recorded solubility (mole fraction) for `CC(=O)c1cccc([N+](=O)[O-])c1` .
Found: 0.0717

----------
details: in methanol, 288.15 K
quantity: solubility (mole fraction)
Just the number.

{"querySmiles": "CC(=O)c1ccc([N+](=O)[O-])cc1", "solubility (mole fraction)": 0.0125}

Note: attention shifts to another entry.
Lookup: Please report the recorded solubility (mole fraction) for `CC(=O)c1cccc([N+](=O)[O-])c1` .
Found: 0.00928

----------
settings: in ethanol, 278.15 K
quantity: solubility (mole fraction)
Just the number.

{"querySmiles": "CC(=O)c1cccc([N+](=O)[O-])c1", "solubility (mole fraction)": 0.00487}

Note: attention shifts to another entry.
Lookup: Please report the recorded solubility (mole fraction) for `CC(=O)c1ccc([N+](=O)[O-])cc1` .
Found: 0.00667

----------
details: in isopropanol, 298.15 K
quantity: solubility (mole fraction)
Just the number.

{"querySmiles": "CC(=O)c1ccc([N+](=O)[O-])cc1", "solubility (mole fraction)": 0.00978}

Note: attention shifts to another entry.
Lookup: Please report the recorded solubility (mole fraction) for `CC(=O)c1cccc([N+](=O)[O-])c1` .
Found: 0.00944

----------
Listed next: entries and their corresponding solubility (mole fraction).
conditions: in acetonitrile, 313.15 K
Just the number.

Lookup: Please report the recorded solubility (mole fraction) for `CC(=O)c1ccc([N+](=O)[O-])cc1` .
Found: 0.336

Lookup: Please report the recorded solubility (mole fraction) for `CC(=O)c1cccc([N+](=O)[O-])c1` .
Found: 0.367

----------
conditions: in methanol, 303.15 K
quantity: solubility (mole fraction)
Just the number.

{"querySmiles": "CC(=O)c1cccc([N+](=O)[O-])c1", "quantity": "solubility (mole fraction)", "valueMeasured": 0.0183}

Note: attention shifts to another entry.
Lookup: Please report the recorded solubility (mole fraction) for `CC(=O)c1ccc([N+](=O)[O-])cc1` .
Found: 0.0231

----------
Listed next: entries and their corresponding solubility (mole fraction).
conditions: in methanol, 318.15 K
Just the number.

{"querySmiles": "CC(=O)c1ccc([N+](=O)[O-])cc1", "valueMeasured": 0.0421}

Lookup: Please report the recorded solubility (mole fraction) for `CC(=O)c1cccc([N+](=O)[O-])c1` .
Found: 0.0389

----------
conditions: in toluene, 283.15 K
quantity: solubility (mole fraction)
Just the number.

{"querySmiles": "CC(=O)c1cccc([N+](=O)[O-])c1", "quantity": "solubility (mole fraction)", "valueMeasured": 0.0657}

Lookup: Please report the recorded solubility (mole fraction) for `CC(=O)c1ccc([N+](=O)[O-])cc1` .
Found: 0.0806

----------
details: in ethyl acetate, 318.15 K
Listed next: entries and their corresponding solubility (mole fraction).

{"querySmiles": "CC(=O)c1cccc([N+](=O)[O-])c1", "solubility (mole fraction)": 0.341}

Lookup: Please report the recorded solubility (mole fraction) for `CC(=O)c1ccc([N+](=O)[O-])cc1` .
Found: 0.345

----------
conditions: in acetone, 298.15 K
Listed next: entries and their corresponding solubility (mole fraction).
Just the number.

{"querySmiles": "CC(=O)c1cccc([N+](=O)[O-])c1", "solubility (mole fraction)": 0.218}

Lookup: Please report the recorded solubility (mole fraction) for `CC(=O)c1ccc([N+](=O)[O-])cc1` .
Found: 0.25

----------
settings: in ethanol, 303.15 K
quantity: solubility (mole fraction)
Just the number.

{"querySmiles": "CC(=O)c1ccc([N+](=O)[O-])cc1", "solubility (mole fraction)": 0.019}

Note: attention shifts to another entry.
Lookup: Please report the recorded solubility (mole fraction) for `CC(=O)c1cccc([N+](=O)[O-])c1` .
Found: 0.0158

----------
conditions: in n-propanol, 278.15 K
Listed next: entries and their corresponding solubility (mole fraction).
Just the number.

{"querySmiles": "CC(=O)c1ccc([N+](=O)[O-])cc1", "solubility (mole fraction)": 0.00481}

Note: attention shifts to another entry.
Lookup: Please report the recorded solubility (mole fraction) for `CC(=O)c1cccc([N+](=O)[O-])c1` .
Found: 0.00388

----------
Listed next: entries and their corresponding solubility (mole fraction).
settings: in isopropanol, 283.15 K
Just the number.

{"querySmiles": "CC(=O)c1ccc([N+](=O)[O-])cc1", "solubility (mole fraction)": 0.00455}

Note: attention shifts to another entry.
Lookup: Please report the recorded solubility (mole fraction) for `CC(=O)c1cccc([N+](=O)[O-])c1` .
Found: 0.00517

----------
Listed next: entries and their corresponding solubility (mole fraction).
conditions: in toluene, 313.15 K
Just the number.

{"querySmiles": "CC(=O)c1ccc([N+](=O)[O-])cc1", "solubility (mole fraction)": 0.232}

Note: attention shifts to another entry.
Lookup: Please report the recorded solubility (mole fraction) for `CC(=O)c1cccc([N+](=O)[O-])c1` .
Found: 0.254

----------
Listed next: entries and their corresponding solubility (mole fraction).
settings: in n-propanol, 303.15 K
Just the number.

{"querySmiles": "CC(=O)c1cccc([N+](=O)[O-])c1", "solubility (mole fraction)": 0.0124}

Note: attention shifts to another entry.
Lookup: Please report the recorded solubility (mole fraction) for `CC(=O)c1ccc([N+](=O)[O-])cc1` .
Found: 0.0154
